Source listed as paper PMC12467033.

Molecular target: α-glucosidase (Saccharomyces cerevisiae)
Sequence (P53341 whole entry): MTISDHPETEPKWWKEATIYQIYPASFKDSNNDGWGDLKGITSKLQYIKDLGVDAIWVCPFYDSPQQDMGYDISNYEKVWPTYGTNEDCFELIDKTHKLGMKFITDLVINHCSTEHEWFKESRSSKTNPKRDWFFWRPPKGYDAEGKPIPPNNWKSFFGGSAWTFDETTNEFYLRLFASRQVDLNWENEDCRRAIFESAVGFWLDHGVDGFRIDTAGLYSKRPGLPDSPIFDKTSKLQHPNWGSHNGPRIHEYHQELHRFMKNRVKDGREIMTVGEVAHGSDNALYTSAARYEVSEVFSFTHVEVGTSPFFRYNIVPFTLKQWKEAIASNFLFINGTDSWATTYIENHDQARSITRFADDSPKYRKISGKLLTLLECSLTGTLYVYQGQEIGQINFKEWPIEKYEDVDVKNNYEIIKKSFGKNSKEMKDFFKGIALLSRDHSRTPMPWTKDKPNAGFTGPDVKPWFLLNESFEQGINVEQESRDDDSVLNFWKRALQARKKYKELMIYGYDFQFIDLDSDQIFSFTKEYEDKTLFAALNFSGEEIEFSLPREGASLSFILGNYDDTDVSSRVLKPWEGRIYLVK
Assay type: biochemical
Settings: enzyme–substrate complex inhibition constant
Please provide measured Kis for the entries that follow.
State just the number; it will be interpreted in µg/mL.

Exam item: Report Kis, nothing else, for this compound: O=C(O)c1ccc(-c2c3nc(c(-c4ccc(C(=O)O)cc4)c4ccc([nH]4)c(-c4ccc(C(=O)O)cc4)c4nc(c(-c5ccc(C(=O)O)cc5)c5ccc2[nH]5)C=C4)C=C3)cc1.[Ni+2]
Marked response: 9.2257

Exam item: Report Kis, nothing else, for this compound: O=C(O)c1ccc(-c2c3nc(c(-c4ccc(C(=O)O)cc4)c4ccc([nH]4)c(-c4ccc(C(=O)O)cc4)c4nc(c(-c5ccc(C(=O)O)cc5)c5ccc2[nH]5)C=C4)C=C3)cc1
Marked response: 52.5334

Exam item: Report Kis, nothing else, for this compound: Nc1ccc(-c2c3nc(c(-c4ccc(N)cc4)c4ccc([nH]4)c(-c4ccc(N)cc4)c4nc(c(-c5ccc(N)cc5)c5ccc2[nH]5)C=C4)C=C3)cc1
Marked response: 55.1227

Exam item: Report Kis, nothing else, for this compound: O=C(O)c1ccc(-c2c3nc(c(-c4ccc(C(=O)O)cc4)c4ccc([nH]4)c(-c4ccc(C(=O)O)cc4)c4nc(c(-c5ccc(C(=O)O)cc5)c5ccc2[nH]5)C=C4)C=C3)cc1.[Cu+2]
Marked response: 38.9429

====

Target: α-amylase (Sus scrofa)
Sequence (P00690 16-511): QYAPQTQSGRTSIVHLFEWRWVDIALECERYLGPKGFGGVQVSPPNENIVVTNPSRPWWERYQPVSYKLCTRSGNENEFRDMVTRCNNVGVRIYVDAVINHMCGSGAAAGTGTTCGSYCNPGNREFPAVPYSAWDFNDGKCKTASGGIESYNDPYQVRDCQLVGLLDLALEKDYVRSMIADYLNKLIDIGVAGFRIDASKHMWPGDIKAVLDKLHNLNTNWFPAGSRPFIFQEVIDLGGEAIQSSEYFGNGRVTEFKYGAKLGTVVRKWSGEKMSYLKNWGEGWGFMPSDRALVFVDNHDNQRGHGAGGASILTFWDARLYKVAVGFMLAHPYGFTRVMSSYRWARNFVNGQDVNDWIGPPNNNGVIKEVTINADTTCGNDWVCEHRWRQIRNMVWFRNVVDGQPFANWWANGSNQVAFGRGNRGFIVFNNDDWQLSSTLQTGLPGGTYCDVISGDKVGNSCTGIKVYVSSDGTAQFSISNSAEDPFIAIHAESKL
Test: Fluorescence quenching, binding and thermodynamics with α-amylase
Conditions: T 304 K
Method: In the α-amylase experiment, a series of porphyrins and amylase (200 U/L) were mixed in a volume ratio of 1:1. […] In the formula, the fluorescence quenching ratio was calculated as F0/F, where F0 corresponds to the emission intensity of pure α-amylase solution (control) and F denotes the intensity measured after the incremental addition of porphyrin ligands. […] Due to the presence of an internal filtration effect, a decrease in the fluorescence intensity of the system may occur. […]
Is ΔG^0 at least -8 kcal/mol? Then Y. If not, N.

Exam item: Dear colleague, could you confirm whether Oc1ccc(-c2c3nc(c(-c4ccc(O)cc4)c4ccc([nH]4)c(-c4ccc(O)cc4)c4nc(c(-c5ccc(O)cc5)c5ccc2[nH]5)C=C4)C=C3)cc1 has ΔG^0 at or above -8 kcal/mol?
Marked response: Y

Exam item: Dear colleague, could you confirm whether Nc1ccc(-c2c3nc(c(-c4ccc(N)cc4)c4ccc([nH]4)c(-c4ccc(N)cc4)c4nc(c(-c5ccc(N)cc5)c5ccc2[nH]5)C=C4)C=C3)cc1 has ΔG^0 at or above -8 kcal/mol?
Marked response: N

Exam item: Dear colleague, could you confirm whether O=C(O)c1ccc(-c2c3nc(c(-c4ccc(C(=O)O)cc4)c4ccc([nH]4)c(-c4ccc(C(=O)O)cc4)c4nc(c(-c5ccc(C(=O)O)cc5)c5ccc2[nH]5)C=C4)C=C3)cc1.[Cu+2] has ΔG^0 at or above -8 kcal/mol?
Marked response: Y
